This section presents compounds with their documented half-life values.
- test: In-vivo pharmacokinetic parameters in mice
- Design: species or system Balb-c mice
- condition_parameters: male, Balb-c, mouse, plasma, PO, 5 mg/kg
A number alone suffices; assume h.

These recorded examples may help you get a feel for the data.
# smiles_notation, half-life [h]
records = [
    ("C[C@H](C(=O)N[C@H](CO)c1cccc(Cl)c1)N1Cc2ccc(-c3nc(NC4CCOCC4)ncc3Cl)c(F)c2C1=O", 1.5),
    ("COc1cc(F)cc([C@@H](CO)NC(=O)[C@@H](C)N2Cc3ccc(-c4nc(NC5CCOCC5)ncc4Cl)nc3C2=O)c1", 0.7),
]

Now look at this one.
Qu. Please give the measured half-life for this compound: Cc1cccc([C@@H](CO)NC(=O)[C@@H](C)N2Cc3ccc(-c4nc(Nc5ccnn5C)ncc4Cl)c(F)c3C2=O)c1
Ans. 1.5

###

Let's look at some compounds and their measured half-life at 1 μM.
- test: Liver microsomal metabolic stability, human
- Type: in vitro ADME
- condition_parameters: liver microsomes, 0.5 mg/mL microsomes, 1 μM compound, NADPH, read-out: Liver microsomal stability T1/2
Provide the reading as a plain figure in min.

Solved cases below.
# compound, measured_result
measured = [
    ("COc1cc(F)cc([C@@H](CO)NC(=O)[C@@H](C)N2Cc3ccc(-c4nc(NC5CCOCC5)ncc4Cl)cc3C2=O)c1 [Comparative compound 5, reference compound]", 3),
    ("COc1cc(F)cc([C@@H](CO)NC(=O)[C@@H](C)N2Cc3ccc(-c4nc(NC5CCOCC5)ncc4F)c(F)c3C2=O)c1", 14),
    ("Cc1cccc([C@@H](CO)NC(=O)[C@@H](C)N2Cc3ncc(-c4nc(NC5CCOCC5)ncc4Cl)cc3C2=O)c1 [Comparative compound 3, reference compound]", 6),
]

Qu. Quick one: half-life at 1 μM of COc1cc(F)cc([C@@H](CO)NC(=O)[C@@H](C)N2Cc3ccc(-c4nc(NC5CCOCC5)ncc4Cl)nc3C2=O)c1 ?
Ans. 12

###

- system_under_test: ERK1/2 kinase
- Construct: fused on or other part: Carna's ERK products carry a GST tag by vendor knowledge
- test: ERK1/2 kinase (Carna) inhibitory activity, Caliper mobility shift
- Type: biochemical
- condition_parameters: numeric values; read-out: ERK½ IC50
metric: pIC50
Units for pIC50: none; it is -log10 of a concentration expressed in mol/L.

Below, 2 compounds whose answers are already recorded.
# smiles_notation, system_under_test, pIC50
rows = [
    ("Cc1cccc([C@@H](CO)NC(=O)[C@@H](C)N2Cc3ccc(-c4ccnc(Nc5ccnn5C)n4)c(F)c3C2=O)c1", "ERK1/2 kinase", 8.89),
    ("Cc1cccc([C@@H](CO)NC(=O)[C@@H](C)N2Cc3ccc(-c4nc(NC5CCOCC5)ncc4Cl)c(F)c3C2=O)c1", "ERK1/2 kinase", 9.15),
]

Field: next compound
Qu. Param item = Cc1cccc([C@@H](CO)NC(=O)[C@@H](C)N2Cc3ccc(-c4nc(Nc5ccnn5C)ncc4Cl)c(F)c3C2=O)c1 ; retrieve measured pIC50.
Ans. 8.85

###

- test: In-vivo pharmacokinetic parameters in mice
- Design: species or system Balb-c mice
- condition_parameters: male, Balb-c, mouse, plasma, IV, 1 mg/kg
metric: MRT inf (min)
Write the value in min as a bare number.

# compound, MRT inf [min]
records = [
    ("C[C@H](C(=O)N[C@H](CO)c1cccc(Cl)c1)N1Cc2ccc(-c3nc(NC4CCOCC4)ncc3Cl)c(F)c2C1=O [Embodiment 34]", 18),
    ("C[C@H](C(=O)N[C@H](CO)c1cccc(Cl)c1)N1Cc2ccc(-c3nc(NC4CCOCC4)ncc3F)c(F)c2C1=O [Embodiment 37]", 18),
    ("Cc1cccc([C@@H](CO)NC(=O)[C@@H](C)N2Cc3ccc(-c4nc(NC5CCOCC5)ncc4F)c(F)c3C2=O)c1 [Embodiment 31]", 30),
    ("COc1cc(F)cc([C@@H](CO)NC(=O)[C@@H](C)N2Cc3ccc(-c4nc(NC5CCOCC5)ncc4Cl)nc3C2=O)c1 [Embodiment 18]", 30),
]

Qu. // MRT inf lookup, key: COc1cc(F)cc([C@@H](CO)NC(=O)[C@@H](C)N2Cc3ccc(-c4nc(NC5CCOCC5)ncc4Cl)c(F)c3C2=O)c1 [Embodiment 33]
Ans. 12
